CC50 for assorted compounds
Test system: VCaP cells
Assay: Cytotoxicity assessment (Cell-titer-glo cell viability), VCaP
Settings: read-out: VCaP (CC50); VCaP cells, 6 days of treatment, Cell-titer-glo, vs DMSO
recorded endpoint: CC50 (nM)

* CC1(C)C(NC(=O)c2ccc(-n3cc(CCOCCOCCNC(=O)C4CCN(c5ccc6nnn(C7CCC(=O)NC7=O)c(=O)c6c5)CC4)nn3)cc2)C(C)(C)C1Oc1ccc(C#N)c(Cl)c1 (centres unmarked) | 38.8
* CC1(C)C(NC(=O)c2ccc(N3CC4CN(C(=O)CNc5ccc6nnn(C7CCC(=O)NC7=O)c(=O)c6c5)CC4C3)cc2)C(C)(C)C1Oc1ccc(C#N)c(Cl)c1 (centres unmarked) | 67.7
* CC1(C)C(NC(=O)c2ccc(C#CCC3CCN(CC4CCN(C(=O)COc5ccc6nnn(C7CCC(=O)NC7=O)c(=O)c6c5)CC4)CC3)cc2)C(C)(C)C1Oc1ccc(C#N)c(Cl)c1 (centres unmarked) | 36
* CC1(C)C(NC(=O)c2ccc(CCN3CCN(CC4CCN(C(=O)C5CN(c6ccc7nnn(C8CCC(=O)NC8=O)c(=O)c7c6)C5)CC4)CC3)cc2)C(C)(C)C1Oc1ccc(C#N)c(Cl)c1 (centres unmarked) | 13

* * *

Consider the following compounds and their measured CC50 readings.
System: LNCaP cells
Assay: Cytotoxicity assessment (Cell-titer-glo cell viability), LNCaP
Conditions: read-out: LNCAP (CC50); LNCaP cells, 6 days of treatment, Cell-titer-glo, vs DMSO
recorded endpoint: CC50 (nM)

- CC1(C)[C@H](NC(=O)c2ccc(N3CCN(CC4CCN(C(=O)C5CCN(c6ccc7nnn(C8CCC(=O)NC8=O)c(=O)c7c6)CC5)CC4)CC3)cc2)C(C)(C)[C@H]1Oc1ccc(C#N)c(Cl)c1 (stereo partly drawn): 190
- CC1(C)C(NC(=O)c2ccc(-c3cnn(C4CCN(CC5CCN(c6ccc7nnn(C8CCC(=O)NC8=O)c(=O)c7c6)CC5)CC4)c3)nc2)C(C)(C)C1Oc1ccc(C#N)c(Cl)c1 (stereo not drawn): 182
- CC1(C)C(NC(=O)c2ccc(-n3cc(C4CCN(C(=O)C5CCN(c6ccc7nnn(C8CCC(=O)NC8=O)c(=O)c7c6)CC5)CC4)nn3)cc2)C(C)(C)C1Oc1ccc(C#N)c(Cl)c1 (stereo not drawn): 15.8

* * *

Molecular target: Androgen receptor (AR) (Homo sapiens, UniProt P10275, T878A)
Construct: 5.5×10^5 LNCap cells were injected into each well of a 6-well plate; endogenous in cells; host or cells: LNCaP
Sequence (P10275 whole entry T878A): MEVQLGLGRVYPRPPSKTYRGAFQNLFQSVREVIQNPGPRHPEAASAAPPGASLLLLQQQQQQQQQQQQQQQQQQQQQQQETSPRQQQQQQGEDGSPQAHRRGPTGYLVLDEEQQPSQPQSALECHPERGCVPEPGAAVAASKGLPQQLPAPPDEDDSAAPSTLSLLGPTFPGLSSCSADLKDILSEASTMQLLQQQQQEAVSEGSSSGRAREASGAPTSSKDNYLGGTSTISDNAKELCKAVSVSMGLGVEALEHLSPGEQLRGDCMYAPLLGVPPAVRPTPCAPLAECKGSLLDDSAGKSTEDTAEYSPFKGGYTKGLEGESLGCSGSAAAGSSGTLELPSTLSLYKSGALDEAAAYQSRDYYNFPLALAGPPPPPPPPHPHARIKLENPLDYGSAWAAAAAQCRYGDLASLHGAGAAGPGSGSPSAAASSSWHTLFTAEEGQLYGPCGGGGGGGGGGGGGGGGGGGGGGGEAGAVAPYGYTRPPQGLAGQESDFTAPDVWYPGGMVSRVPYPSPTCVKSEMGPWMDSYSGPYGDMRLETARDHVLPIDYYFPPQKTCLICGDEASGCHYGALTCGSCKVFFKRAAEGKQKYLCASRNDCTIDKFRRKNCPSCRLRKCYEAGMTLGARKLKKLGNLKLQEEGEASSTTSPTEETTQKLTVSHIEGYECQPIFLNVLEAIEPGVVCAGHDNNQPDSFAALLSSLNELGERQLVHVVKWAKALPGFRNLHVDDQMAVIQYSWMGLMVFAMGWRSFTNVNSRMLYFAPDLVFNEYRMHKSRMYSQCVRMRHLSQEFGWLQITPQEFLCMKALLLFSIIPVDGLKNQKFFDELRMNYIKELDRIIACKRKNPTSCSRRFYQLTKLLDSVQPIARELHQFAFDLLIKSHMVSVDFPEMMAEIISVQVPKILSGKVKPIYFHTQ
Assay: Assessment of AR proteolytic activity (Western blotting of LNCap cell lysates)
Assay type: cell-based
Details: 24 hours of treatment, Western blotting quantified with Image J
Experimental: Assessment of AR Proteolytic Activity Androgen receptor (AR) proteolytic activity of the compound according to the present invention was evaluated as follows: Specifically, 5.5×10^5 LNCap cells were injected into each well of a 6-well plate. […] Western blotting was performed, and the results were quantified using Image J program.
// reported Degradation (1 μM treated in LNCaP, % AR remaining) per item
recorded endpoint: Degradation (1 μM treated in LNCaP, % AR remaining) (%)

- CC1(C)C(NC(=O)c2ccc(N3CCN(CC4CCN(CC5CCN(c6ccc7nnn(C8CCC(=O)NC8=O)c(=O)c7c6)CC5)CC4)CC3)cc2)C(C)(C)C1Oc1ccc(C#N)c(Cl)c1 (centres unmarked): 99
- CC1(C)C(NC(=O)c2ccc(N3CCN(CCCOC4CCN(C(=O)CNc5ccc6nnn(C7CCC(=O)NC7=O)c(=O)c6c5)CC4)CC3)cc2)C(C)(C)C1Oc1ccc(C#N)c(Cl)c1 (centres unmarked): 14.9
- CC1(C)[C@H](NC(=O)c2ccc(N3CCN(C4CC5(CCN(c6ccc7nnn(C8CCC(=O)NC8=O)c(=O)c7c6)CC5)C4)CC3)cc2)C(C)(C)[C@H]1Oc1ccc(C#N)c(Cl)c1 (some centres unmarked): 5
- CC1(C)C(NC(=O)c2ccc(N3CCN(CCCOC4CCN(C(=O)COc5ccc6nnn(C7CCC(=O)NC7=O)c(=O)c6c5)CC4)CC3)cc2)C(C)(C)C1Oc1ccc(C#N)c(Cl)c1 (centres unmarked): 27.3
- CC1(C)C(NC(=O)c2ccc(N3CCN(CC4(O)CCN(C(=O)C5CCN(c6ccc7nnn(C8CCC(=O)NC8=O)c(=O)c7c6)CC5)CC4)CC3)cc2)C(C)(C)C1Oc1ccc(C#N)c(Cl)c1 (centres unmarked): 8.6
